assay: yeast display, Sf9 membrane polyspecificity reagent, FACS + sequencing; frameworks hold sequencing errors
valueKind: polyreactivity (PSR sort gate)

1. QVQLVESGGGLVQAGGRLRLSCAASGLTFGRYAMGWYRQAPGKERELVAVINGSGGNTYYADSVKGRFTISRDNAKNTVYLQMNSLKPEDTAVYYCAARRTVQYTLYYYPDYNYWGQGTQVTVSS    low polyreactivity
2. QVQLVESGGGLVQAGGSLRLSFAASGRIFYVYAMGWYRQAPGKERELVAAITYSGGSTYYADSVKGRFTISRDNAKNTVYLQMNSLKPEDTAVYYCATEGSYTRWSRGLDYWGQGTQVTVSS    low polyreactivity

---

assay: yeast display, Sf9 membrane polyspecificity reagent, FACS + sequencing; frameworks hold sequencing errors
valueKind: polyreactivity (PSR sort gate)

1) QVQLVESGGGLVQAGGSLRLSCAASGRILLFYAMGWYRQAPGKERELVASIDYSGGSTTYADSVKGRFTISRDNAKNTVYLQMNRLKPEDTAVYYCNAEAWWYFWFDYWGQGTQVTVSS    low polyreactivity
2) QVQLVESGGGLVQAGCRLRLSCAASGLIFGYYHMGWYRQAPGKERELVAAITTGDSTYYADSVKGRFTISRDNAKNTVYLQMNSLKPEDTAVYYCAAYPVWYYEYDYWGQGTQVTVSS    low polyreactivity

---

assay: yeast display, Sf9 membrane polyspecificity reagent, FACS + sequencing; frameworks hold sequencing errors
valueKind: polyreactivity (PSR sort gate)

Example entries begin here.
1) QVQLVESGGGFVQAGGSLRFSCAASGRIFPGYAMGWYRQAPGKERELVAAISASGGSTYDADSVKGRFTISRDNAKNPVYLQMNSLKPEDPAVYYCNAVYRLIRFDYWGQGTQVTVSS    high polyreactivity
2) QVQLVESGGGLVQAGGSLRLSCAASGRTFRTNAMGWYRQAPGKEPELVAAISRGGGSTYYADSVKGRFTISRDNAKNTVYLQMNSLKPEDTAVYDCNALRNGIAFGAMDYWGQGTQVNVSS    high polyreactivity
3) QVQLVESGGGLVQAGGSLRLSCAASGFTFSPYAMGGYRKAPGKERELVAAISSSGGSTYYADSVKGRFTISRDNAKNTVYLQMNSLKPEDTAVYYCATQGTRRPGKFYYWGQGTQVPVSS    high polyreactivity
4) QVQLVESGGGLVQAGGSLRLSCAAYGSILYVYAMGWYRQAPGKERELVAVITAGGSTNYADSVKGRFTISRDNAKNTVYLQMNSLKPEHSAVYYCAADPYSVYGGDYWGQGTQVTVSS    low polyreactivity
5) QVQLVESGGGLVQAGGSLRLSCAASGRIFLYYAMGWYRQAPGKERELVAAISFRGGSTYYADSVKGRFTISRDNAKNTVYLQMNSLKPEDTAVYYCNAVRDWGPSQVYDGMDYWGQGTQVTVSS    low polyreactivity
6) QVQLVESGGGLVQAGGSLRLSCAASGSIFAYYAMGWYRQAPGKERELVAVISRGGSTYYADSVKGRFTISRDNATNTVYLQMNSLKPEDTAVYYCAADDTRGREEYDYWGQGTQVTVSS    high polyreactivity
7) QVQLVESGGGLVQAGGSLRLSCAASGRIFIRYAMGWYRQAPGKERELVAGITSGGDTYYADSVKGRFTISRDNAKNTVYLQMNSLKPEDTAVYYCARVRYGRMDYWGQGTQVTVSS    high polyreactivity
8) QVQLVESGGGLVQAGGSLRLSCAASGSTFYSNAMGWYRQAPGKERELVAAINYSGGGTYYADSVKGRFTISRDNAKNTVYLQMNSLKPEDTAVYYCAADGSYVHWEYGYWGQGTQVTVSS    low polyreactivity

# per-item lookup of polyreactivity (PSR sort gate); items listed below
1. QVQLVESGGGLVQAGGSLRLSCAASGFSLRNNAMGWYRPAPGKERELVAGITSGGRTNYADSVKGRFTISRDNAKNTVYLQMNSLKPEHTAVYYCAKRVWPRDQYGKRNPRMDYWGQGTLVTVSS
2. QVQLVESGGGLVQAGGSLRLSCAASGRIFRIYAMGWYRQAPGKERELVARITYSGGSTYYADSVKGRFTISRDNAKNTVYLQMNSLKPEDTAVYYCNAYFIYEGGWYYKAQYDYWGQGTQVTVSS
3. QVQLVESGGGLVQAGGSLRLSCAASGFTSRANAMGWYRQAPWKESELVAVITAGGGSTSYADSVKGRFTISRDNAKNTVYLQMNSLKPEDTAVYYCASTWYGGPYKSYYYWGQGTQVTVSS

1. high polyreactivity
2. low polyreactivity
3. low polyreactivity
